Data origin, for the record: paper PMC6072596

target: pS1981ATM (Homo sapiens); assay: ATM cell assay; conditions: read-out: pS1981ATM IC50 (ATM cell IC50)
Sequence (Q13315 whole entry): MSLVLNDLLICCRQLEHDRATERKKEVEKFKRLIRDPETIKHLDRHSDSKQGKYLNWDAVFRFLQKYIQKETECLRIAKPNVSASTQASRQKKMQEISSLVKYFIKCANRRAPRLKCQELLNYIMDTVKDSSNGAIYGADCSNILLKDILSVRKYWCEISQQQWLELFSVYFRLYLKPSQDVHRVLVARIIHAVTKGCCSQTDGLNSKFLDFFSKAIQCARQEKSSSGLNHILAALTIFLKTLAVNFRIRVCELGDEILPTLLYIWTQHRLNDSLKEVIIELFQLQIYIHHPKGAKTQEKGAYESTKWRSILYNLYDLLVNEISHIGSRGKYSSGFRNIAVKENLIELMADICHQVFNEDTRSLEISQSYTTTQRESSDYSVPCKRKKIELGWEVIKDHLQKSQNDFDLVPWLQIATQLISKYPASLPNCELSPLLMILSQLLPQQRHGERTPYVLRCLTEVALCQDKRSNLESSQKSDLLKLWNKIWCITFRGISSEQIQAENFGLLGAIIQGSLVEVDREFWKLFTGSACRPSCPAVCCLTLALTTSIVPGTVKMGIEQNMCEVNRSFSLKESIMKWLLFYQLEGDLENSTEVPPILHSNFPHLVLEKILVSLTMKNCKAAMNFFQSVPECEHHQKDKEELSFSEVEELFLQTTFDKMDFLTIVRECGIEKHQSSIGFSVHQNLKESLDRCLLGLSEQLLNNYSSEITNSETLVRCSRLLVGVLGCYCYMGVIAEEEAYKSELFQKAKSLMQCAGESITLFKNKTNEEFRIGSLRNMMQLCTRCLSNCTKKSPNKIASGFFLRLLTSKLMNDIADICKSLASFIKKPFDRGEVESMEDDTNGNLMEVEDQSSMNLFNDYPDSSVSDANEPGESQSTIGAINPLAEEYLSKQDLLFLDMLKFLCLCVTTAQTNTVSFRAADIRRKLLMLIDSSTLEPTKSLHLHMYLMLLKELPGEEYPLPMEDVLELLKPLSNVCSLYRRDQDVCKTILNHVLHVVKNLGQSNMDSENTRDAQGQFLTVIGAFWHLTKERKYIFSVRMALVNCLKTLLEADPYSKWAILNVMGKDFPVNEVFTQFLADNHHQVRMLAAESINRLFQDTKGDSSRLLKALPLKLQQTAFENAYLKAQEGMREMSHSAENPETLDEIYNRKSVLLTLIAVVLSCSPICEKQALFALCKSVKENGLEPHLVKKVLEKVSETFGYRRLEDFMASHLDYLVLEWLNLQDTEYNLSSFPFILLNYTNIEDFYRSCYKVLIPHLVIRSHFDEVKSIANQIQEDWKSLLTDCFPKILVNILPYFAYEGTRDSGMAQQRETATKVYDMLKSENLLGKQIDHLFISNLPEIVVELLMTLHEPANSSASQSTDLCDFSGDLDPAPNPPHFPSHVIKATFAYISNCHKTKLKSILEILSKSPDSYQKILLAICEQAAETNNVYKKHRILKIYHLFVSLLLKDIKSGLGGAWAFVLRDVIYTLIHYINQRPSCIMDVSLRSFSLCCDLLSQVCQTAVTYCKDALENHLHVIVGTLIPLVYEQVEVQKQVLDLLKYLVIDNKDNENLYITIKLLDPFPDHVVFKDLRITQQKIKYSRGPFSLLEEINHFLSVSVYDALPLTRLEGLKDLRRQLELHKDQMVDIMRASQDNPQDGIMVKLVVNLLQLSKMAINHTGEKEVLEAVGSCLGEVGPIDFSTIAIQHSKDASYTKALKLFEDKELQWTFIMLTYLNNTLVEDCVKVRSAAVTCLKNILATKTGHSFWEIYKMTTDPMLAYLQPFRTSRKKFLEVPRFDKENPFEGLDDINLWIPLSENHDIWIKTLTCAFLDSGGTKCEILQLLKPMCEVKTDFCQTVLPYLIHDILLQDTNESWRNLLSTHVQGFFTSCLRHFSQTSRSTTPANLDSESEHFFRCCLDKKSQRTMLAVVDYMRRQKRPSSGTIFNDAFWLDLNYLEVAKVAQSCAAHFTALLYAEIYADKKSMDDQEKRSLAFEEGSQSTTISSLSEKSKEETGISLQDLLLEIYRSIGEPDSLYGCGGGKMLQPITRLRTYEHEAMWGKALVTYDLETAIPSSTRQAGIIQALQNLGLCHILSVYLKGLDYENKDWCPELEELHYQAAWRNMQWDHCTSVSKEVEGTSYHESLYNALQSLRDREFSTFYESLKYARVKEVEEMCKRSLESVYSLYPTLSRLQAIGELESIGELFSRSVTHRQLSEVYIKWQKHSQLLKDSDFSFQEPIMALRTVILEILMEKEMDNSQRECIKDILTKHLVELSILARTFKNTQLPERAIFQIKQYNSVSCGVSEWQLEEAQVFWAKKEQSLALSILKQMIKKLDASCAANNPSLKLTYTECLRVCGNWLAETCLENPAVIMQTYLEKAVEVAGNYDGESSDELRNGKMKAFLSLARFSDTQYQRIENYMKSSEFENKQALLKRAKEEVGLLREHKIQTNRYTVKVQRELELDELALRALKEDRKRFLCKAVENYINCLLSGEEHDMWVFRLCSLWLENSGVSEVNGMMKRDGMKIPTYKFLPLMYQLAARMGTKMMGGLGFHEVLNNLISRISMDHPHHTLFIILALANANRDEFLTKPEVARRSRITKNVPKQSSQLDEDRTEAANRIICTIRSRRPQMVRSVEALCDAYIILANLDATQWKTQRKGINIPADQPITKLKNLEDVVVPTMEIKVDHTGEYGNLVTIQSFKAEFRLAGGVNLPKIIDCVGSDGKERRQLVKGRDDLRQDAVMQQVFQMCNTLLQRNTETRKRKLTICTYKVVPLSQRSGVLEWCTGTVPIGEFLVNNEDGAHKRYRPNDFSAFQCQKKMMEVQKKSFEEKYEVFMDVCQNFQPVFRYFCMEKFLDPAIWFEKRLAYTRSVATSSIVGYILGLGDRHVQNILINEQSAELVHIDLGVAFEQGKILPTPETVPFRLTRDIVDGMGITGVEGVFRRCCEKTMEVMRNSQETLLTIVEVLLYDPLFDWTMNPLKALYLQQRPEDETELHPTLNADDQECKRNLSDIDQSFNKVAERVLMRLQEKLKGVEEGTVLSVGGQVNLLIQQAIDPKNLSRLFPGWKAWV
pIC50: −log10 of the molar value.
reported.endpoint: pIC50

1) CNC(=O)c1ccc(-c2cnc3cnc(-c4ccccc4)cn23)cc1	6.51
